Target: human EP3 receptor (Homo sapiens, UniProt P43115)
Experiment: Cellular in vitro assay for determining EP3 receptor activity (human EP3 cell line, sulprostone-stimulated calcium luminescence)
Conditions: CHO cells expressing human EP3 and mitochondrial Clytin; antagonist mode, sulprostone at EC50; read-out: EP3 CHO mtCLY ANTAG IC50
Method: B-1. Cellular In Vitro Assay for Determining EP3 Receptor Activity The identification of antagonists of the EP3 receptor from humans and rats as well as the quantification of the activity of the compounds of the invention was carried out using recombinant cell lines. […] Antagonists inhibit the receptor signaling, leading to reduced calcium release and luminescence. The bioluminescence of the cell lines is detected using a suitable luminometer (Trends Pharmacol. Sci. 1996, 17, 235-237). […]
pIC50: −log10 of the molar value.
measurementType: pIC50

As a guide, the following entries are already answered.
| compound | tgt | observedValue |
| --- | --- | --- |
| Cc1ccc(-c2cn3nc(C(=O)NC(CO)C(F)(F)F)c(C4CC4)c3c(=O)[nH]2)cc1F (racemic) [6-392] | human EP3 receptor (Homo sapiens, UniProt P43115) | 8.36 |
| Cc1cc(-c2cn3nc(C(=O)NCCC(O)C(F)(F)F)c(C4CC4)c3c(=O)[nH]2)ccc1Cl (racemic) [6-309] | human EP3 receptor (Homo sapiens, UniProt P43115) | 8.95 |

(P) Cc1cc(-c2cn3nc(C(=O)N[C@H](C)C4CC4)c(C(F)(F)C(F)(F)F)c3c(=O)[nH]2)ccc1Cl [6-476]
(Q) Cc1nn(C(CNC(=O)c2cc3c(=O)[nH]c(-c4ccc5ccccc5c4)cn3n2)C(C)C)c(C)c1Cl (stereo not shown) [Example 2-20]
Q. Choose between P and Q : whose measured pIC50 value is numerically larger? Output the label that corresponds to your choice.
A. P
(P: 8.28, Q: 8.01)

(a) COC(=O)N1CC(NC(=O)c2cc3c(=O)[nH]c(-c4ccc(C)c(C)c4)cn3n2)(c2ccc(OC)cc2)C1 [Example 1-66]
(b) O=C(NCCN(CC(F)F)C1CC1)c1nn2cc(-c3ccc4ccccc4c3)[nH]c(=O)c2c1C(F)(F)F [6-527]
Q. Choose between a and b : whose measured pIC50 value is numerically larger? Output the label that corresponds to your choice.
A. a
(a: 8.78, b: 8.47)

----------
Target: human EP3 receptor (Homo sapiens, UniProt P43115)
Sequence (P43115 1-390): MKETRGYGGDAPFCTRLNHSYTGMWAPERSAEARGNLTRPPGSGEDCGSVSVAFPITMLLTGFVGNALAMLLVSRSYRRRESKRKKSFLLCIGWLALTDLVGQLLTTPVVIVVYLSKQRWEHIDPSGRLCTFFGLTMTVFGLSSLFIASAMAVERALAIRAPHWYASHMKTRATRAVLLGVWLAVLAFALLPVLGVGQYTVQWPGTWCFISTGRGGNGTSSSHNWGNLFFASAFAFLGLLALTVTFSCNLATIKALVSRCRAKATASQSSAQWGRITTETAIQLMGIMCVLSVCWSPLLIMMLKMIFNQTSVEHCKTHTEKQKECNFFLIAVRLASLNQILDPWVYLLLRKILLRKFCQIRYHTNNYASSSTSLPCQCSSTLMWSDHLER
Assay: Cellular in vitro assay for determining EP3 receptor activity (human EP3 cell line, sulprostone-stimulated calcium luminescence)
Details: CHO cells expressing human EP3 and mitochondrial Clytin; antagonist mode, sulprostone at EC50; read-out: EP3 CHO mtCLY ANTAG IC50
measurementType: IC50 (nM)

| compound | measurementType | valueUnit | observedValue |
| --- | --- | --- | --- |
| Cc1ccc(-c2cn3nc(C(=O)NC(c4ccc(F)cc4)C4(O)CC4)c(C4CC4)c3c(=O)[nH]2)cc1F (single isomer, unassigned) [6-382] | IC50 | nM | 0.78 |
| Cc1cc(-c2cn3nc(C(=O)NC4(c5ccc(F)cc5)CN(C)C4)c(C4CC4)c3c(=O)[nH]2)c(F)cc1Cl [6-593] | IC50 | nM | 8.43 |
| Cc1ccc(-c2[nH]c(=O)c3c(C(F)(F)F)c(C(=O)N[C@H](C)c4ccc(F)cc4)nn3c2C)cc1C [Example 1-123] | IC50 | nM | 3.2 |

(I) Cc1ccc(-c2cn3nc(C(=O)N[C@H](CCO)c4ccc(F)cc4)c(C)c3c(=O)[nH]2)cc1F [6-408]
(II) C[C@@H](NC(=O)c1cc2c(=O)[nH]c(-c3ccc4ccccc4n3)cn2n1)c1ccc(F)cc1 [Example 1-105]
Q. Between item I and item II , which reported IC50 is smaller? Output the label that corresponds to your choice.
A. I
(I: 1.03 nM, II: 1.48 nM)

(1) Cc1ccc(-c2cn3nc(C(=O)NC(CO)c4ccc(F)cc4)c(C(F)(F)F)c3c(=O)[nH]2)cc1Cl (single isomer, unassigned) [6-156]
(2) Cc1cccc2ncc(-c3cn4nc(C(=O)NC(C)c5ccc6c(c5)OCCO6)c(C(C)C)c4c(=O)[nH]3)cc12 (stereo not shown) [Example 4-57]
Q. Between item 1 and item 2 , which reported IC50 is smaller? Output the label that corresponds to your choice.
A. 1
(1: 1.3 nM, 2: 1.9 nM)

----------
Target: human EP3 receptor (Homo sapiens)
Sequence (P43115 1-390): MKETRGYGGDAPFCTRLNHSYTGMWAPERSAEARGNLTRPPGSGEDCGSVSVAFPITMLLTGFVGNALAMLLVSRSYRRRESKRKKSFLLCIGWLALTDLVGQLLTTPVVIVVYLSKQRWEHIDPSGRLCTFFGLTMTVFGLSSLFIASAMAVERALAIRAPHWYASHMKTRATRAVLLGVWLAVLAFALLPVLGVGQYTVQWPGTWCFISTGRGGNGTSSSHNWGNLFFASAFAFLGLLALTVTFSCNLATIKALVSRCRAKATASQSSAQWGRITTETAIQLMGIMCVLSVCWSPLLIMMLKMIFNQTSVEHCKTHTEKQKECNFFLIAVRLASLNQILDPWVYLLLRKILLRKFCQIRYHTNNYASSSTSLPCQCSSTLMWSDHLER
Assay: Cellular in vitro assay for determining EP3 receptor activity (human EP3 cell line, sulprostone-stimulated calcium luminescence)
Conditions: CHO cells expressing human EP3 and mitochondrial Clytin; antagonist mode, sulprostone at EC50; read-out: EP3 CHO mtCLY ANTAG IC50
Description: B-1. Cellular In Vitro Assay for Determining EP3 Receptor Activity The identification of antagonists of the EP3 receptor from humans and rats as well as the quantification of the activity of the compounds of the invention was carried out using recombinant cell lines. […] Antagonists inhibit the receptor signaling, leading to reduced calcium release and luminescence. The bioluminescence of the cell lines is detected using a suitable luminometer (Trends Pharmacol. Sci. 1996, 17, 235-237). […]
pIC50: −log10 of the molar value.
measurementType: pIC50

| compound | tgt | pIC50 |
| --- | --- | --- |
| Cc1cc(-c2cn3nc(C(=O)NC(c4ccc(F)cc4)C4(O)CC4)c(C(F)(F)F)c3c(=O)[nH]2)ccc1Cl (single isomer, unassigned) [6-212] | human EP3 receptor (Homo sapiens) | 8.09 |
| Cc1cccc2ncc(-c3cn4nc(C(=O)NCc5cccc(CN6CCCC6)c5)c(C(C)C)c4c(=O)[nH]3)cc12 | human EP3 receptor (Homo sapiens) | 8.35 |
| O=C(NC(CCO)c1ccc(F)cc1)c1cc2c(=O)[nH]c(-c3ccc4cccnc4c3)cn2n1 (centres unmarked) | human EP3 receptor (Homo sapiens) | 8.44 |

(I) Cc1ccc(-c2cn3nc(C(=O)N[C@@H](c4ccc(F)cc4)C(C)(C)O)c(C)c3c(=O)[nH]2)nc1C
(II) Cc1cccc2ncc(-c3cn4nc(C(=O)NC(CCO)c5ccccc5Cl)c(C(C)C)c4c(=O)[nH]3)cc12 (centres unmarked)
Q. Choose between I and II : whose measured pIC50 value is numerically larger? Output the label that corresponds to your choice.
A. II

(1) COc1ccc(C2(NC(=O)c3cc4c(=O)[nH]c(-c5ccc6c(c5)OCCO6)cn4n3)CN(C(=O)OC(C)(C)C)C2)cc1
(2) COc1ccc2c(c1)OC(C)(C)CC2NC(=O)c1nn2cc(-c3cnc4cccc(C)c4c3)[nH]c(=O)c2c1C(C)C (centres unmarked)
Q. Choose between 1 and 2 : whose measured pIC50 value is numerically larger? Output the label that corresponds to your choice.
A. 1

(I) Cc1ccc(-c2cn3nc(C(=O)NC(CO)C(F)(F)F)c(C4CC4)c3c(=O)[nH]2)cc1C(F)(F)F (single isomer, unassigned) [6-249]
(II) Cc1ccc(-c2cn3nc(C(=O)NC(c4ccc(F)cc4)C4(O)CC4)c(C4CC4)c3c(=O)[nH]2)cc1F (racemic) [6-381]
(III) CC[C@@H](C)NC(=O)c1nn2cc(-c3ccc(C(F)(F)F)c(C)c3)[nH]c(=O)c2c1C1CC1
Q. Sort low-to-high on pIC50, please. In your reply, arrange the labels in the requested order.
A. III, I, II

(a) Cc1ccc(-c2cn3nc(C(=O)N[C@@H](c4ccc(F)cc4)C(C)(C)O)c(C4CCC4)c3c(=O)[nH]2)cc1F
(b) Cc1c(C(=O)N[C@H]2CCc3ccccc32)nn2c(C)c(-c3ccc4ccccc4c3)[nH]c(=O)c12
Q. Between item a and item b , which reported pIC50 is smaller? Output the label that corresponds to your choice.
A. b
(b: 8.33, a: 8.90)
